- EXPERIMENTAL_SYSTEM: Dipeptidase 1 (Homo sapiens)
- EXPERIMENT_SUMMARY: In vitro rate of hydrolysis by human dehydropeptidase-1 compared to meropenem.
I would appreciate it if you labelled entries 1.0 when DHP-I stability is 0.3 or higher, otherwise 0.0.

[[record]]
compound = "C[C@@H](O)[C@H]1C(=O)N2C(C(=O)[O-])=C(SC3Cn4cnc[n+]4C3)[C@H](C)[C@H]12 (some centres not stated)"
class_label = 0.0

[[record]]
compound = "C[C@@H](O)[C@H]1C(=O)N2C(C(=O)O)=C(S[C@@H]3CN[C@H](Cc4c(CO)c[n+](C)n4C)C3)[C@H](C)[C@H]12.[Cl-]"
class_label = 0.0

[[record]]
compound = "C[C@@H](O)[C@H]1C(=O)N2C(C(=O)O)=C(S[C@@H]3CN[C@H](Cc4cn(C)[n+](CCO)c4)C3)[C@H](C)[C@H]12.[Cl-]"
class_label = 0.0

[[record]]
compound = "C[C@@H](O)[C@H]1C(=O)N2C(C(=O)O)=C(S[C@@H]3CN[C@H](C(=O)N(C)C)C3)[C@H](C)[C@H]12"
class_label = 1.0

[[record]]
compound = "C[C@@H](O)[C@H]1C(=O)N2C(C(=O)O)=C(S[C@@H]3CN[C@H](Cc4c[n+](CCO)cn4C)C3)[C@H](C)[C@H]12.[Cl-]"
class_label = 0.0

[[record]]
compound = "C[C@@H](O)[C@H]1C(=O)N2C(C(=O)O)=C(S[C@@H]3CN[C@H](Cc4n(C)nc[n+]4C)C3)[C@H](C)[C@H]12.[Cl-]"
class_label = 0.0


Below: the item to evaluate.
Entry C[C@@H](O)[C@H]1C(=O)N2C(C(=O)O)=C(S[C@@H]3CN[C@H](Cc4cc[n+](CC(=O)O)n4C)C3)[C@H](C)[C@H]12.[Cl-] : is its DHP-I stability no less than 0.3?
1.0

---

Exercise: state measured DHP-I stability for each of the compounds provided.
- EXPERIMENTAL_SYSTEM: Dipeptidase 1 (Homo sapiens)
- EXPERIMENT_SUMMARY: In vitro rate of hydrolysis by human dehydropeptidase-1 compared to meropenem.
One number for each entry.

Worked examples follow.
[[record]]
smi = "C[C@@H](O)[C@H]1C(=O)N2C(C(=O)O)=C(S[C@@H]3CN[C@H](Cc4cn(C)[n+](CC(=O)O)c4)C3)[C@H](C)[C@H]12.[Cl-]"
test_readout = "DHP-I stability"
value_reported = 0.14

[[record]]
smi = "C[C@@H](O)[C@H]1C(=O)N2C(C(=O)O)=C(S[C@@H]3CN[C@H](Cc4c[n+](C)c(CO)n4C)C3)[C@H](C)[C@H]12.[Cl-]"
test_readout = "DHP-I stability"
value_reported = 0.27


Let us move to another entry and its DHP-I stability.
Given the entry C[C@@H](O)[C@H]1C(=O)N2C(C(=O)O)=C(S[C@@H]3CN[C@H](Cc4c[n+](CCO)nn4C)C3)[C@H](C)[C@H]12.[Cl-] , report its measured DHP-I stability.
0.17

---

- Test system: Staphylococcus aureus
- EXPERIMENT_SUMMARY: In vitro antibacterial activity of compound was measured on Staphylococcus aureus 3004(MRSA)
- Format: functional
Exercise: state measured MIC for each of the compounds provided.
Give bare numbers, in µg/mL.

Worked examples follow.
[[record]]
compound = "C[C@@H](O)[C@H]1C(=O)N2C(C(=O)O)=C(S[C@@H]3CN[C@H](C(=O)N(C)C)C3)[C@H](C)[C@H]12"
test_readout = "MIC"
value_reported = 25

[[record]]
compound = "C[C@@H](O)[C@H]1C(=O)N2C(C(=O)O)=C(S[C@@H]3CN[C@H](Cc4c[n+](C)nn4C)C3)[C@H](C)[C@H]12.[Cl-]"
test_readout = "MIC"
value_reported = 25

[[record]]
compound = "C[C@@H](O)[C@H]1C(=O)N2C(C(=O)[O-])=C(SC3Cn4cnc[n+]4C3)[C@H](C)[C@H]12 (some centres not stated)"
test_readout = "MIC"
value_reported = 25

[[record]]
compound = "C[C@@H](O)[C@H]1C(=O)N2C(C(=O)O)=C(S[C@@H]3CN[C@H](Cc4c[n+](CCO)cn4C)C3)[C@H](C)[C@H]12.[Cl-]"
test_readout = "MIC"
value_reported = 12.5


Okay, here is my list. What is MIC for each of these?
1. C[C@@H](O)[C@H]1C(=O)N2C(C(=O)O)=C(S[C@@H]3CN[C@H](Cc4c[n+](C)c(CO)n4C)C3)[C@H](C)[C@H]12.[Cl-]
2. C[C@@H](O)[C@H]1C(=O)N2C(C(=O)O)=C(S[C@@H]3CN[C@H](Cc4cn(C)[n+](CC(=O)O)c4)C3)[C@H](C)[C@H]12.[Cl-]
3. C[C@@H](O)[C@H]1C(=O)N2C(C(=O)O)=C(S[C@@H]3CN[C@H](Cc4n(C)cc[n+]4C)C3)[C@H](C)[C@H]12.[Cl-]

1. 6.25
2. 12.5
3. 6.25

---

- EXPERIMENTAL_SYSTEM: Dipeptidase 1 (Homo sapiens) (UniProt P16444)
- Sequence (P16444 whole entry, looked up): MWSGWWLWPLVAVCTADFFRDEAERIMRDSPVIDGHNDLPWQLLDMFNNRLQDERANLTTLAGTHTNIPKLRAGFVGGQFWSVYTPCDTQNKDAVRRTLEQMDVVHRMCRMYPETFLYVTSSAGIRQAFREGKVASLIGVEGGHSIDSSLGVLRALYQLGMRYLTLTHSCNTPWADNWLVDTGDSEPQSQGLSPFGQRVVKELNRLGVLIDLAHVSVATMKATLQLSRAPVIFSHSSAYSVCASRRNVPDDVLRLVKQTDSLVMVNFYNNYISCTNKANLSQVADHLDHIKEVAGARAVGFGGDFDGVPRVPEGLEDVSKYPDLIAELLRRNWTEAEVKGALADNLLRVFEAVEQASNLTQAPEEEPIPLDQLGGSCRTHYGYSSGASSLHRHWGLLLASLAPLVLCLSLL
- EXPERIMENT_SUMMARY: In vitro rate of hydrolysis by human dehydropeptidase-1 compared to meropenem.
Under this convention, 1 denotes DHP-I stability strictly below 0.3 and -1 denotes DHP-I stability at or above 0.3.

Please review the entries below; each comes with its answer.
[[record]]
smi = "C[C@@H](O)[C@H]1C(=O)N2C(C(=O)O)=C(S[C@@H]3CN[C@H](Cc4cc[n+](CC(N)=O)n4C)C3)[C@H](C)[C@H]12.[Cl-]"
class_label = -1

[[record]]
smi = "C[C@@H](O)[C@H]1C(=O)N2C(C(=O)O)=C(S[C@@H]3CN[C@H](Cc4c[n+](C)nn4C)C3)[C@H](C)[C@H]12.[Cl-]"
class_label = -1


Field: below-cutoff. Rule: recorded DHP-I stability strictly less than 0.3. Subject: C[C@@H](O)[C@H]1C(=O)N2C(C(=O)O)=C(S[C@@H]3CN[C@H](Cc4cn(C)[n+](CC(N)=O)c4)C3)[C@H](C)[C@H]12.[Cl-]
1

---

- EXPERIMENTAL_SYSTEM: Dipeptidase 1 (Homo sapiens) (UniProt P16444)
- EXPERIMENT_SUMMARY: In vitro rate of hydrolysis by human dehydropeptidase-1 compared to meropenem.
I would appreciate it if you labelled entries true (1) when DHP-I stability is 0.3 or higher, otherwise false (0).

Please review the entries below; each comes with its answer.
[[record]]
smi = "C[C@@H](O)[C@H]1C(=O)N2C(C(=O)O)=C(S[C@@H]3CN[C@H](Cc4cn(C)[n+](C)c4)C3)[C@H](C)[C@H]12.[Cl-]"
class_label = "false (0)"

[[record]]
smi = "C[C@@H](O)[C@H]1C(=O)N2C(C(=O)O)=C(S[C@@H]3CN[C@H](Cc4c[n+](C)cn4C)C3)[C@H](C)[C@H]12.[Cl-]"
class_label = "true (1)"

[[record]]
smi = "C[C@@H](O)[C@H]1C(=O)N2C(C(=O)O)=C(S[C@@H]3CN[C@H](Cc4cc[n+](CCO)n4C)C3)[C@H](C)[C@H]12.[Cl-]"
class_label = "false (0)"

[[record]]
smi = "C[C@@H](O)[C@H]1C(=O)N2C(C(=O)O)=C(S[C@@H]3CN[C@H](Cc4cn(C)[n+](C)c4CO)C3)[C@H](C)[C@H]12.[Cl-]"
class_label = "false (0)"

[[record]]
smi = "C[C@@H](O)[C@H]1C(=O)N2C(C(=O)O)=C(S[C@@H]3CN[C@H](Cc4c[n+](CC(N)=O)cn4C)C3)[C@H](C)[C@H]12.[Cl-]"
class_label = "true (1)"

[[record]]
smi = "C[C@@H](O)[C@H]1C(=O)N2C(C(=O)O)=C(S[C@@H]3CN[C@H](Cc4cn5[n+](c4)CCC5)C3)[C@H](C)[C@H]12.[Cl-]"
class_label = "false (0)"


Below: the item to evaluate.
Entry C[C@@H](O)[C@H]1C(=O)N2C(C(=O)O)=C(S[C@@H]3CN[C@H](Cc4cc[n+](C)n4C)C3)[C@H](C)[C@H]12.[Cl-] : is its DHP-I stability no less than 0.3?
true (1)

# credit: ChEMBL document CHEMBL1130441
